Reference source: ChEMBL document CHEMBL3137667

Details: human, serum
Please go through the items and note down their Hepatotoxicity (moderate).
One number for each entry.

Consider the reported Hepatotoxicity (moderate) for these substances:
substance="MEGLUMINE ANTIMONATE" experimental_result=3
substance=POVIDONE experimental_result=0
substance=PEGVISOMANT experimental_result=0
substance="INTERFERON ALFA-2A" experimental_result=50
substance="DALTEPARIN SODIUM" experimental_result=3

Okay, here is my list. What is Hepatotoxicity (moderate) for each of these?
1. GENTAMICIN
2. MUROMONAB-CD3
3. NADROPARIN CALCIUM
4. PARAFFIN
5. ETARACIZUMAB
6. ANISTREPLASE
7. ALDESLEUKIN
8. BEMIPARIN SODIUM

1. 7
2. 0
3. 8
4. 0
5. 1
6. 0
7. 58
8. 1

====

Conditions: human
readout_label: Hepatotoxicity (choleostasis)
Give bare numbers.

Consider the reported Hepatotoxicity (choleostasis) for these substances:
substance="NADROPARIN CALCIUM" experimental_result=0
substance=GENTAMICIN experimental_result=0
substance=ANISTREPLASE experimental_result=0
substance="SODIUM NITROPRUSSIDE" experimental_result=0
substance="DENILEUKIN DIFTITOX" experimental_result=0

Okay, here is my list. What is Hepatotoxicity (choleostasis) for each of these?
1. CHOLESTYRAMINE
2. MUROMONAB-CD3
3. BEMIPARIN SODIUM
4. STIBOGLUCONATE
5. GEMTUZUMAB OZOGAMICIN
6. COLISTIN
7. INTERFERON ALFA-N1
8. INTERFERON ALFA-2B

0
0
0
0
2
0
0
2

Okay, here is my list. What is Hepatotoxicity (choleostasis) for each of these?
1. ETARACIZUMAB
2. GONADOTROPIN, SERUM

[0, 0]

====

Settings: human
Please go through the items and note down their Hepatotoxicity (granulomatous hepatitis).

Okay, here is my list. What is Hepatotoxicity (granulomatous hepatitis) for each of these?
1. COc1nc(C)nc(Cl)c1N=C1NCCN1
2. NC(=O)N1c2ccccc2C=Cc2ccccc21 [CARBAMAZEPINE]
3. CN(C)CC(Oc1ccccc1)Oc1ccccc1

[0, 12, 0]

Okay, here is my list. What is Hepatotoxicity (granulomatous hepatitis) for each of these?
1. COc1ccc(-c2noc(CC(=O)O)c2-c2ccc(OC)cc2)cc1
2. C=C[C@H]1C[N@@]2CC[C@H]1C[C@@H]2[C@@H](O)c1ccnc2ccc(OC)cc12
3. O=C1OCCN1/N=C/c1ccc([N+](=O)[O-])o1
4. CCN(CC)CCNc1ccc(CO)c2sc3ccccc3c(=O)c12
5. CCOC(=O)Nc1ccc(NCc2ccc(F)cc2)nc1N

1: 0; 2: 11; 3: 0; 4: 0; 5: 0

Okay, here is my list. What is Hepatotoxicity (granulomatous hepatitis) for each of these?
1. C[Si](C)(C)c1cccc(C(=O)C(F)(F)F)c1
2. Nc1c(CC(=O)O)cccc1C(=O)c1ccc(Br)cc1
3. O=C(O)C(=O)O
4. CCCCN1CCCCC1C(=O)Nc1c(C)cccc1C (centres undefined)

0
0
0
0

Okay, here is my list. What is Hepatotoxicity (granulomatous hepatitis) for each of these?
1. FC(F)OC(F)C(F)(F)F (centres undefined)
2. CN[C@@H]1[C@H](O[C@H]2[C@H](O[C@H]3[C@H](O)[C@@H](O)[C@H](NC(=N)N)[C@@H](O)[C@@H]3NC(=N)N)O[C@@H](C)[C@]2(O)CO)O[C@@H](CO)[C@H](O)[C@H]1O [DIHYDROSTREPTOMYCIN]

1: 0; 2: 0

Okay, here is my list. What is Hepatotoxicity (granulomatous hepatitis) for each of these?
1. OC[C@H]1O[C@@H](n2cnc3c2NC=NC[C@H]3O)C[C@@H]1O
2. COC1=C(OC)C(=O)C(CCCCCCCCCCO)=C(C)C1=O

1. 0
2. 0

Okay, here is my list. What is Hepatotoxicity (granulomatous hepatitis) for each of these?
1. S=P(N1CC1)(N1CC1)N1CC1
2. CC(=O)OCC(=O)NCCCOc1cccc(CN2CCCCC2)c1 [ROXATIDINE ACETATE]
3. CC1(C)CC(=O)N(CCCCN2CCN(c3ncccn3)CC2)C(=O)C1 [GEPIRONE]
4. Cc1cccc(C)c1NC(=O)C(C)N (centres undefined) [TOCAINIDE]
5. O=C(Cn1ccnc1[N+](=O)[O-])NCc1ccccc1

1. 0
2. 0
3. 0
4. 1
5. 0

Okay, here is my list. What is Hepatotoxicity (granulomatous hepatitis) for each of these?
1. O=c1[nH]c(=O)n([C@@H]2O[C@H](CO)[C@@H](O)[C@@H]2F)cc1I
2. CCCN(CCC)S(=O)(=O)c1ccc(C(=O)O)cc1
3. Nc1nc(N)c2nc(-c3ccccc3)c(N)nc2n1
4. COC(=O)Nc1nc2ccc(C(=O)c3ccccc3)cc2[nH]1
5. Nc1nc2ccc(OC(F)(F)F)cc2s1
6. N[C@@H](Cc1ccc(O)c(O)c1)C(=O)O
7. CN1CCN(c2c(F)cc3c(=O)c(C(=O)O)cn(CCF)c3c2F)CC1
8. CCN1CC(CCN2CCOCC2)C(c2ccccc2)(c2ccccc2)C1=O (centres undefined)

0
1
0
1
0
0
0
0

Okay, here is my list. What is Hepatotoxicity (granulomatous hepatitis) for each of these?
1. O=C(O)c1ccccc1Nc1cccc(C(F)(F)F)c1
2. CCOC(=O)C1=C(COCCN)NC(C)=C(C(=O)OC)C1c1ccccc1Cl (centres undefined)

1: 0; 2: 0

====

Please go through the items and note down their Hepatotoxicity (acute).
Assay: Highest frequency of acute liver toxicity observed during clinical trials, expressed as a percentage. [column '% AIGUE' in source]
Settings: human, Liver
One number for each entry, in %.

Consider the reported Hepatotoxicity (acute) for these compounds:
compound="Cc1cccc(Nc2ccccc2C(=O)O)c1C [MEFENAMIC ACID]" readout_label="Hepatotoxicity (acute)" result_unit=% experimental_result=0
compound="CNCCCC12CCC(c3ccccc31)c1ccccc12 [MAPROTILINE]" readout_label="Hepatotoxicity (acute)" result_unit=% experimental_result=0

Okay, here is my list. What is Hepatotoxicity (acute) for each of these?
1. NNc1nncc2ccccc12 [HYDRALAZINE]
2. CC(C)c1cccc(C(C)C)c1O [PROPOFOL]
3. O=C(O)COc1nn(Cc2ccccc2)c2ccccc12 [BENDAZAC]

1. 0
2. 0
3. 0

====

Details: human, serum
readout_label: Hepatotoxicity (acute)

Consider the reported Hepatotoxicity (acute) for these molecules:
molecule=O=c1[nH]c(=O)n([C@H]2C[C@H](O)[C@@H](CO)O2)cc1F experimental_result=9
molecule="CCCCC(C)(O)C/C=C/[C@H]1[C@H](O)CC(=O)[C@@H]1CCCCCCC(=O)OC (some centres undefined)" experimental_result=0
molecule=O=C(O)c1cccs1 experimental_result=3
molecule=COc1cc(C(=S)N2CCOCC2)cc(OC)c1OC experimental_result=2

Okay, here is my list. What is Hepatotoxicity (acute) for each of these?
1. CCCCC1=NC2(CCCC2)C(=O)N1Cc1ccc(-c2ccccc2-c2nnn[nH]2)cc1
2. Nc1nc2c(ncn2COCCO)c(=O)[nH]1
3. CC(=O)[C@@]1(O)CC[C@H]2[C@@H]3C[C@H](C)C4=CC(=O)CC[C@]4(C)[C@H]3CC[C@@]21C
4. CN1CCN(CCCN2c3ccccc3Sc3ccc(C(F)(F)F)cc32)CC1
5. CN[C@@H]1[C@H](O)[C@H](NC)[C@H]2O[C@@]3(O)C(=O)C[C@@H](C)O[C@H]3O[C@@H]2[C@H]1O

1. 2
2. 1
3. 3
4. 5
5. 1

====

Please go through the items and note down their Hepatotoxicity (steatosis).
Conditions: human

Consider the reported Hepatotoxicity (steatosis) for these molecules:
molecule="CCOc1cc(CC(=O)N[C@@H](CC(C)C)c2ccccc2N2CCCCC2)ccc1C(=O)O [REPAGLINIDE]" experimental_result=0
molecule=C[C@H]1C[C@H]2[C@@H]3CCC4=CC(=O)C=C[C@]4(C)[C@@]3(F)[C@@H](O)C[C@]2(C)[C@@]1(O)C(=O)CO experimental_result=1
molecule="CCCC(C)C1(CC)C(=O)NC(=S)NC1=O (centres undefined)" experimental_result=1

We next turn to a different molecule, shown below.
Find the measured Hepatotoxicity (steatosis) of "OC(CCCN1CCCCC1)(c1ccccc1)c1ccccc1" and report it.
0

====

Please go through the items and note down their Hepatotoxicity (choleostasis).
Settings: human
One number for each entry.

Consider the reported Hepatotoxicity (choleostasis) for these compounds:
compound=CO/N=C(\C(=O)N[C@@H]1C(=O)N2C(C(=O)OCOC(=O)C(C)(C)C)=C(/C=C\c3scnc3C)CS[C@H]12)c1csc(N)n1 experimental_result=0
compound=O=C(O)c1cc(=O)c2c(OCC(O)COc3cccc4oc(C(=O)O)cc(=O)c34)cccc2o1 experimental_result=0
compound=CC1(C)S[C@@H]2[C@H](NC(=O)[C@H](N)c3ccc(O)cc3)C(=O)N2[C@H]1C(=O)O.O=C(O)[C@H]1/C(=C/CO)O[C@@H]2CC(=O)N21 experimental_result=61
compound="CC(=O)c1ccc2c(c1)N(CC(C)N(C)C)c1ccccc1S2 (configuration not stated)" experimental_result=1

Okay, here is my list. What is Hepatotoxicity (choleostasis) for each of these?
1. Cc1ccc(S(=O)(=O)NC(=O)NN2CCCCCC2)cc1 [TOLAZAMIDE]
2. CN[C@@H]1[C@@H](O)[C@@H](O[C@@H]2[C@@H](O)[C@H](O[C@H]3OC(CN)=CC[C@H]3N)[C@@H](N)C[C@H]2N)OC[C@]1(C)O
3. CC(=O)/N=c1/sc(S(N)(=O)=O)nn1C [METHAZOLAMIDE]
4. CC(C)(Oc1ccc(Cl)cc1)C(=O)NC(=O)NCN1CCOCC1 [PLAFIBRIDE]

[4, 0, 1, 0]

Okay, here is my list. What is Hepatotoxicity (choleostasis) for each of these?
1. CS(=O)(=O)c1ccc(C2=C(c3ccccc3)C(=O)OC2)cc1
2. CC(C)(Oc1ccc(C2CC2(Cl)Cl)cc1)C(=O)O (configuration not stated) [CIPROFIBRATE]
3. NC(=O)c1ncn([C@@H]2O[C@H](CO)[C@@H](O)[C@H]2O)n1

1
1
1

Okay, here is my list. What is Hepatotoxicity (choleostasis) for each of these?
1. CCC(=O)O[C@](Cc1ccccc1)(c1ccccc1)[C@H](C)CN(C)C
2. O=C(O)c1cn(C2CC2)c2cc(N3CCNCC3)c(F)cc2c1=O

1: 20; 2: 12
